- experimentalTarget: D(3) dopamine receptor (Homo sapiens, UniProt P35462)
- Sequence (P35462 whole entry): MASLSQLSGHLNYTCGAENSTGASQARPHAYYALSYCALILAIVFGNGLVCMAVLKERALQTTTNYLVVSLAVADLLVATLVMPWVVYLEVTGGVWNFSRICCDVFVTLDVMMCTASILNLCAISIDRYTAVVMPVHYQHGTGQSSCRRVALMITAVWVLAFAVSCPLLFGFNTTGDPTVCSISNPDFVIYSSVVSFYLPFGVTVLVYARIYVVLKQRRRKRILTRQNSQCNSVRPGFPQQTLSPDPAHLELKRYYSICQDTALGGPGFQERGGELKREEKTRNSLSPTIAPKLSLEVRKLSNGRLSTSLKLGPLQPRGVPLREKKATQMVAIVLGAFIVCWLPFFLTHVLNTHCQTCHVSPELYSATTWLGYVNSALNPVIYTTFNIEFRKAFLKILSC
- testName: In vitro ability to displace [3H]spiperone from cloned human dopamine D3 receptor expressed in CHO cells
- Format: cell-based
valueType: Ki (µM)
Response body: numeric value in µM, unit text excluded.

The reported Ki of the compound c1ccc(C2=N[C@@H](CN3CCN(c4ccccc4)CC3)CCN2)cc1 was 13

---

Provide the recorded log10 Ki for the entries that follow.
- experimentalTarget: D(3) dopamine receptor (Homo sapiens, UniProt P35462)
- testName: biochemical
- Description: In vitro binding affinity to displace [3H]spiperone from the cloned human dopamine receptor D3 in CHO cells
In our notation, the value equals log10 of Ki in µM.

Short answer for O=C1C[C@@H](CN2CCN(c3ccccc3)CC2)N=C(c2ccccc2)N1 : log10 Ki was 1.30

Lab note: COc1ccc(Br)cc1C1=NCC[C@H](CN2CCN(c3ccccc3)CC2)N1 gave log10 Ki of 0.87

get_value(item= O=C1C[C@H](CN2CCN(c3ccccc3)CC2)N=C(c2ccccc2)N1 , readout=log10 Ki) returns 1.08

Looking up c1ccc(C2=NCC(N3CCN(c4ccccc4)CC3)CCN2)cc1 (single isomer, unassigned) , I found its log10 Ki recorded as 0.52

log10 Ki in this record for COc1ccc(Br)cc1C1=NCC[C@@H](CN2CCN(c3ccccc3)CC2)N1 : 0.28

Kindly note the recorded log10 Ki for c1ccc(C2=NC[C@H](N3CCN(c4ccccc4)CC3)CCN2)cc1 , which is 1.08

Attribution: ChEMBL document CHEMBL1136617
